# target_system: T1, human glycophorin A on human red blood cells or red blood cell membranes (human, UniProt P02724 20-150)
# T1 construct: whole, on cells; also called hRBC; human RBC membranes
# T1 sequence (looked up): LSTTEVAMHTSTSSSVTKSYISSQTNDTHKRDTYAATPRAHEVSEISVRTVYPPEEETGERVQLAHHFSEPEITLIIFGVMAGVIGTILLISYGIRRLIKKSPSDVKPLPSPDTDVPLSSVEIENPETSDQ
# assay_procedure: Fab 7 ug/ml on intact human RBC, unbound Fab by ELISA; pre-dilution
measured_attribute: percentage of input antibody bound (%)
Write it as a number; the unit % goes unstated.

// query For the binder shown here, TPP-7790, affinity matured 6C12 Fab (Fab, V domains shown, Tested as Fab with a 6xHIS tag) VH: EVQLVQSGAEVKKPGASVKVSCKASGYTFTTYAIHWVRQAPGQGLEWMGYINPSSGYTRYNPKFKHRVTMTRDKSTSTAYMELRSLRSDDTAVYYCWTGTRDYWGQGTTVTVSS VL: DIQLTQSPSFLSASVGDRVTITCRASSSVRYIYWFQQKPGKAPKLLIYATSFLQSGVPSRFSGSGSGTEYTLTISSLQPEDFATYYCHQRNSFPYTFGQGTKLEIK , give the reported percentage of input antibody bound.
// result 91

// query For the binder shown here, TPP-7795, affinity matured 6C12 Fab (Fab, V domains shown, Tested as Fab) VH: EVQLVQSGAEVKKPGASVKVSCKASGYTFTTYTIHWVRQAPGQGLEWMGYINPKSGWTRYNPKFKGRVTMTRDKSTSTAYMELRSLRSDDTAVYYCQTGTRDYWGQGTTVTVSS VL: DIQLTQSPSFLSASVGDRVTITCRASSSVSYIYWFQQKPGKAPKLLIYATSFLQSGVPSRFSGSGSGTEYTLTISSLQPEDFATYYCHQRNSFPYTFGQGTKLEIK , give the reported percentage of input antibody bound.
// result 95
